# subject.of.test: T1, human CCR8 (human, UniProt P51685 1-355)
# T1 construct: Native CCR8 on human PBMC (CCR8+ CD3+ or CCR8+ CD4+ lymphocytes); also called chemokine (C-C motif) receptor 8
# procedure.summary: flow blocking, PBMC CCR8+CD3+; competitor PE-AB14
// 0 strictly below 600 in MFI; 1 otherwise

INSERT INTO assay_data (binder, assigned_label) VALUES
  ('AB8 (antibody, V domains shown, Hybridoma monoclonal; also called antibody 8; clone 8) VH: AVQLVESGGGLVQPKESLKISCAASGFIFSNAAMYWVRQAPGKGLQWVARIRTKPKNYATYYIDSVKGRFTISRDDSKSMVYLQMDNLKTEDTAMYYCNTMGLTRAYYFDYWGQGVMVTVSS VL: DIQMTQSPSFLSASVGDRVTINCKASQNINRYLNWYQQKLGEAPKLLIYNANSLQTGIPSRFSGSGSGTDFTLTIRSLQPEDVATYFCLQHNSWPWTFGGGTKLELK', 0),
  ('AB10 (antibody, V domains shown, Hybridoma monoclonal; also called antibody 10; clone 10) VH: EVQLVETGGGLVQPKGSLKLSCAVSGFTFKTNAMNWVRQAPGKGLEWVARIRSKSNKYATYYADSVKDRFTISRDDSQSMLYLQMNNLKTEDTAMYYCVRGSEMGYYYAMDYWGQGTSVTVSS VL: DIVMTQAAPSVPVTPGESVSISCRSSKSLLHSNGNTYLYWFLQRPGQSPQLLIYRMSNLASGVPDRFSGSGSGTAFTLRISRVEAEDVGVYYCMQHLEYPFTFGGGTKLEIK', 0),
  ('AB5 (antibody, V domains shown, Hybridoma monoclonal; Same VH/VL entries as AB6; also called antibody 5; clone 5) VH: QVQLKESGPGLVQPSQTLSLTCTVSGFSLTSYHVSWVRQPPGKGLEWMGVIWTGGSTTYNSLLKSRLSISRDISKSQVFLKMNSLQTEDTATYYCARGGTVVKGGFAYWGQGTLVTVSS VL: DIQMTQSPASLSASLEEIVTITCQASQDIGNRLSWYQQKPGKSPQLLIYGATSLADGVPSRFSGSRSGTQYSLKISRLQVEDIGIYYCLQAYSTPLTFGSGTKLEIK', 1),
  ('AB11 (antibody, V domains shown, Hybridoma monoclonal; also called antibody 11; clone 11) VH: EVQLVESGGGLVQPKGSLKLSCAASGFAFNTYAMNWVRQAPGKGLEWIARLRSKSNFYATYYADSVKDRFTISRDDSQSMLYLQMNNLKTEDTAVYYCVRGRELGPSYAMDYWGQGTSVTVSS VL: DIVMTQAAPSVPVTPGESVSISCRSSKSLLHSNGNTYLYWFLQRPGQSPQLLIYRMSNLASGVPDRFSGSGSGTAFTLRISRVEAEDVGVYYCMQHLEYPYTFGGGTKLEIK', 0);
